The following compounds are shown together with reported IC50 values.
Tested on: T-24
Assay: Cytotoxicity against human T24 cells assessed as reduction in cell viability incubated for 72 hrs by MTT assay
Format: functional, cell-based
Conditions: T-24, 72 h
Report the value in µM with no unit label.

{"Compound": "O=C(OCCOCCOCCO)c1ccc2c(c1)nc(Nc1cccc(Cl)c1)c1ccncc12", "Measured Value": 14.1}

Input line: Report IC50 for O=C(NCCN1CCCC1)c1ccc2c(c1)nc(Nc1cccc(Cl)c1)c1ccncc12 please.
Output line: 3.23

Input line: Report IC50 for CN(C)CCNC(=O)c1ccc2c(c1)nc(Nc1cccc(Cl)c1)c1ccncc12 please.
Output line: 5.93

Input line: Report IC50 for O=C(NCCN1CCOCC1)c1ccc2c(c1)nc(Nc1cccc(Cl)c1)c1ccncc12 please.
Output line: 8.73

Input line: Report IC50 for O=C(OCCO)c1ccc2c(c1)nc(Nc1cccc(Cl)c1)c1ccncc12 please.
Output line: 16.6

* * *

Tested on: T-24
Experiment: Cytotoxicity against human T24 cells assessed as reduction in cell viability incubated for 72 hrs by MTT assay
Format: functional, cell-based
Conditions: T-24, 72 h
Readout Label: IC50 (µM)
Report the value in µM with no unit label.

Reference set, count: 3
{"Smi": "O=C(NO)c1ccc2c(c1)nc(Nc1cccc(Cl)c1)c1ccncc12", "Measurement Unit": "µM", "Measured Value": 3.89}
{"Smi": "O=C(NCC(F)F)c1ccc2c(c1)nc(Nc1cccc(Cl)c1)c1ccncc12", "Measurement Unit": "µM", "Measured Value": 18.1}
{"Smi": "O=C(O)CCNC(=O)c1ccc2c(c1)nc(Nc1cccc(Cl)c1)c1ccncc12", "Measurement Unit": "µM", "Measured Value": 24.4}

Input line: Report IC50 for O=C(OCCC(Cl)Cl)c1ccc2c(c1)nc(Nc1cccc(Cl)c1)c1ccncc12 please.
Output line: 20.6

Input line: Report IC50 for NCCNC(=O)c1ccc2c(c1)nc(Nc1cccc(Cl)c1)c1ccncc12 please.
Output line: 14.4

Input line: Report IC50 for O=C(OCC(F)F)c1ccc2c(c1)nc(Nc1cccc(Cl)c1)c1ccncc12 please.
Output line: 22.7

Input line: Report IC50 for O=C(OCCc1ccccn1)c1ccc2c(c1)nc(Nc1cccc(Cl)c1)c1ccncc12 please.
Output line: 22.5

Input line: Report IC50 for NCCCNC(=O)c1ccc2c(c1)nc(Nc1cccc(Cl)c1)c1ccncc12 please.
Output line: 37.3

Input line: Report IC50 for COC(=O)CCCNC(=O)c1ccc2c(c1)nc(Nc1cccc(Cl)c1)c1ccncc12 please.
Output line: 12.9

Input line: Report IC50 for O=C(O)CCCNC(=O)c1ccc2c(c1)nc(Nc1cccc(Cl)c1)c1ccncc12 please.
Output line: 21.1

* * *

Test: Thermodynamic solubility of the compound in phosphate buffer at pH 6.8 after overnight incubation by shake flask method
Assay type: physicochemical
Details: read-out: Therm_solubility
Readout Label: solubility thermodynamic (µg/mL)
Report the value in µg/mL with no unit label.

Input line: Report solubility thermodynamic for O=C(NCCO)c1ccc2c(c1)nc(Nc1cccc(Cl)c1)c1ccncc12 please.
Output line: 0.89

* * *

Let's go through some pIC50 measurements on Dual specificity protein kinase CLK2 (Homo sapiens, UniProt P49760) together.
Sequence (P49760 whole entry): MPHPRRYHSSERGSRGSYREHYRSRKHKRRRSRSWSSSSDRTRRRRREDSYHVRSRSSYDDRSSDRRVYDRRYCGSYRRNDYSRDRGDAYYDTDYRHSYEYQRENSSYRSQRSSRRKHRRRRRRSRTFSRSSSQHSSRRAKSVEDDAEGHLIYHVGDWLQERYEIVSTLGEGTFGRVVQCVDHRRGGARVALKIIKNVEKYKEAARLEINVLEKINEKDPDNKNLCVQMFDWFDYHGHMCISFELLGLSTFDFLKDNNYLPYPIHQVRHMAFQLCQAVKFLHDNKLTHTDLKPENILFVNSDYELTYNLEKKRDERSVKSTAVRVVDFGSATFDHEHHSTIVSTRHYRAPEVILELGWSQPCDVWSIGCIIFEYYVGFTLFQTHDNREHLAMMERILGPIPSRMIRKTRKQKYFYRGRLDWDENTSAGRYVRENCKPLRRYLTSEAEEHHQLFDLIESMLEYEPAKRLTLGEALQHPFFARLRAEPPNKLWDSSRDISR
Scale explanation: pIC50 corresponds to minus log10 of a concentration expressed in moles per litre.

{"Smi": "O=C(OCCF)c1ccc2c(c1)nc(Nc1cccc(Cl)c1)c1ccncc12", "Readout Label": "pIC50", "Measured Value": 8.97}
{"Smi": "O=C(NCCN1CCOCC1)c1ccc2c(c1)nc(Nc1cccc(Cl)c1)c1ccncc12", "Readout Label": "pIC50", "Measured Value": 7.66}
{"Smi": "O=C(NCCBr)c1ccc2c(c1)nc(Nc1cccc(Cl)c1)c1ccncc12", "Readout Label": "pIC50", "Measured Value": 7.61}

Input line: Report pIC50 for O=C(OCC(F)F)c1ccc2c(c1)nc(Nc1cccc(Cl)c1)c1ccncc12 please.
Output line: 8.81
